- Assay Overview: Toxicokinetics from toxicological studies in dogs, daily oral (gavage) administration
- Format: in vivo, dog
- Measurement Parameters: female, dog, plasma, po, 100 mg/kg, CBD 100 mg/kg oral, Day 1, females, Geometric Mean; read-out: CL/F
Quantity Measured: CL/F (mL/min/kg)
Give bare numbers, in mL/min/kg.

Challenge: # query: CL/F of entry C=C(C)[C@@H]1CCC(C)=C[C@H]1c1c(O)cc(CCCCC)cc1O [CBD, Cannabidiol]
Response given: 187

###

- Assay Overview: Toxicokinetics from toxicological studies in dogs, daily oral (gavage) administration
- Format: in vivo, dog
- Measurement Parameters: female, dog, plasma, po; comparative Table 11, females, 100 mg/kg, Day 1, mean; read-out: AUC0-t
Quantity Measured: AUC0-t (µg·h/mL)
Give bare numbers, in µg·h/mL.

Challenge: Which AUC0-t is listed for C=C(C)[C@@H]1CCC(C)=C[C@H]1c1c(O)cc(CCCCC)c(C(=O)O)c1O ?
Response given: 179

###

- Assay Overview: Toxicokinetics from toxicological studies in dogs, daily oral (gavage) administration
- Assay type: in vivo, dog
- Measurement Parameters: female, dog, plasma, po, 100 mg/kg, CBD 100 mg/kg oral, Day 1, females, Median; read-out: AUC0-inf
Quantity Measured: AUC0-inf (ng·h/mL)
Give bare numbers, in ng·h/mL.

Challenge: Fill in the blank: the reported AUC0-inf of C=C(C)[C@@H]1CCC(C)=C[C@H]1c1c(O)cc(CCCCC)cc1O is ____.
Response given: 12800

###

- Assay Overview: Toxicokinetics from toxicological studies in dogs, daily oral (gavage) administration
- Type: in vivo, dog
- Measurement Parameters: male, dog, plasma, po, 100 mg/kg, CBD 100 mg/kg oral, Day 1, males, Median; read-out: Cmax
Quantity Measured: Cmax (ng/mL)
Answers are plain numbers, in ng/mL.

Challenge: For C=C(C)[C@@H]1CCC(C)=C[C@H]1c1c(O)cc(CCCCC)cc1O , what is its reported Cmax?
Response given: 3360

###

- Assay Overview: Toxicokinetics from toxicological studies in dogs, daily oral (gavage) administration
- Assay type: in vivo, dog
- Measurement Parameters: male, dog, plasma, po, 100 mg/kg, CBD 100 mg/kg oral, Day 1, males, Median; read-out: AUC0-inf
Quantity Measured: AUC0-inf (ng·h/mL)
Numbers only, in ng·h/mL.

Challenge: If you can, please state the reported AUC0-inf value of C=C(C)[C@@H]1CCC(C)=C[C@H]1c1c(O)cc(CCCCC)cc1O .
Response given: 35400

###

- Assay Overview: Toxicokinetics from toxicological studies in dogs, daily oral (gavage) administration
- Assay type: in vivo, dog
- Measurement Parameters: female, dog, plasma, po, 100 mg/kg, CBD 100 mg/kg oral, Day 1, females, Geometric Mean; read-out: AUC0-inf
- Description: Samples were taken from the jugular vein into lithium heparin. Samples were mixed gently by hand then continuously for at least 2 minutes on automatic mixer and placed in a Kryorack until centrifugation, which was carried out at approximately 4° C. as soon as practicable. The resultant plasma was separated under low light conditions, transferred to uniquely labelled clear glass vials, placed in light proof boxes and frozen immediately at <−50° C.
Quantity Measured: AUC0-inf (µg·h/mL)
Give bare numbers, in µg·h/mL.

Challenge: # query: AUC0-inf of entry C=C(C)[C@@H]1CCC(C)=C[C@H]1c1c(O)cc(CCCCC)cc1O [CBD, Cannabidiol]
Response given: 8.93

###

- Assay Overview: Toxicokinetics from toxicological studies in dogs, daily oral (gavage) administration
- Assay type: in vivo, dog
- Measurement Parameters: female, dog, plasma, po, 100 mg/kg, CBD 100 mg/kg oral, Day 1, females, Median; read-out: tmax
- Description: Samples were taken from the jugular vein into lithium heparin. Samples were mixed gently by hand then continuously for at least 2 minutes on automatic mixer and placed in a Kryorack until centrifugation, which was carried out at approximately 4° C. as soon as practicable. The resultant plasma was separated under low light conditions, transferred to uniquely labelled clear glass vials, placed in light proof boxes and frozen immediately at <−50° C.
Quantity Measured: tmax (h)
Answers are plain numbers, in h.

Challenge: Would you kindly share the measured tmax for C=C(C)[C@@H]1CCC(C)=C[C@H]1c1c(O)cc(CCCCC)cc1O [CBD, Cannabidiol] ?
Response given: 4

###

- Assay Overview: Toxicokinetics from toxicological studies in dogs, daily oral (gavage) administration
- Format: in vivo, dog
- Measurement Parameters: male, dog, plasma, po, 100 mg/kg, comparative Table 10, males, 100 mg/kg, Day 1, mean; read-out: Cmax
Quantity Measured: Cmax (ng/mL)
Give bare numbers, in ng/mL.

Challenge: Which value of Cmax has been reported for C=C(C)[C@@H]1CCC(C)=C[C@H]1c1c(O)cc(CCCCC)cc1O in the records?
Response given: 3180

###

- Assay Overview: Toxicokinetics from toxicological studies in dogs, daily oral (gavage) administration
- Assay type: in vivo, dog
- Measurement Parameters: male, dog, plasma, po, 100 mg/kg, CBD 100 mg/kg oral, Day 1, males, Geometric Mean; read-out: Cmax
- Procedure: Samples were taken from the jugular vein into lithium heparin. Samples were mixed gently by hand then continuously for at least 2 minutes on automatic mixer and placed in a Kryorack until centrifugation, which was carried out at approximately 4° C. as soon as practicable. The resultant plasma was separated under low light conditions, transferred to uniquely labelled clear glass vials, placed in light proof boxes and frozen immediately at <−50° C.
Quantity Measured: Cmax (ng/mL)
Give bare numbers, in ng/mL.

Challenge: Quick check: Cmax of C=C(C)[C@@H]1CCC(C)=C[C@H]1c1c(O)cc(CCCCC)cc1O [CBD, Cannabidiol] ?
Response given: 2970

###

- Assay Overview: Toxicokinetics from toxicological studies in dogs, daily oral (gavage) administration
- Type: in vivo, dog
- Measurement Parameters: female, dog, plasma, po, 100 mg/kg, CBD 100 mg/kg oral, Day 1, females, Mean, N=4; read-out: CL/F
Quantity Measured: CL/F (mL/min/kg)
Numbers only, in mL/min/kg.

Challenge: Please give the measured CL/F for this molecule: C=C(C)[C@@H]1CCC(C)=C[C@H]1c1c(O)cc(CCCCC)cc1O
Response given: 316

###

- Assay Overview: Toxicokinetics from toxicological studies in dogs, daily oral (gavage) administration
- Format: in vivo, dog
- Measurement Parameters: female, dog, plasma, po, 100 mg/kg, CBD 100 mg/kg oral, Day 1, females, Geometric Mean; read-out: Vz/F
Quantity Measured: Vd/F (L/kg)
Numbers only, in L/kg.

Challenge: Could you tell me which Vd/F is on file for C=C(C)[C@@H]1CCC(C)=C[C@H]1c1c(O)cc(CCCCC)cc1O [CBD, Cannabidiol] ?
Response given: 94.8

###

- Assay Overview: Toxicokinetics from toxicological studies in dogs, daily oral (gavage) administration
- Assay type: in vivo, dog
- Measurement Parameters: male, dog, plasma, po, 100 mg/kg, CBD 100 mg/kg oral, Day 1, males, Median; read-out: CL/F
- Protocol: Samples were taken from the jugular vein into lithium heparin. Samples were mixed gently by hand then continuously for at least 2 minutes on automatic mixer and placed in a Kryorack until centrifugation, which was carried out at approximately 4° C. as soon as practicable. The resultant plasma was separated under low light conditions, transferred to uniquely labelled clear glass vials, placed in light proof boxes and frozen immediately at <−50° C.
Quantity Measured: CL/F (mL/min/kg)
Give bare numbers, in mL/min/kg.

Challenge: What does the data say about its CL/F? Entry: C=C(C)[C@@H]1CCC(C)=C[C@H]1c1c(O)cc(CCCCC)cc1O [CBD, Cannabidiol]
Response given: 47.1

###

- Assay Overview: Toxicokinetics from toxicological studies in dogs, daily oral (gavage) administration
- Type: in vivo, dog
- Measurement Parameters: female, dog, plasma, po, 100 mg/kg, CBD 100 mg/kg oral, Day 1, females, Geometric Mean; read-out: AUC0-t
Quantity Measured: AUC0-t (ng·h/mL)
Numbers only, in ng·h/mL.

Challenge: Query (compound): C=C(C)[C@@H]1CCC(C)=C[C@H]1c1c(O)cc(CCCCC)cc1O [CBD, Cannabidiol] ; field requested: AUC0-t
Response given: 12300

###

- Assay Overview: Toxicokinetics from toxicological studies in dogs, daily oral (gavage) administration
- Format: in vivo, dog
- Measurement Parameters: female, dog, plasma, po, 100 mg/kg, CBD 100 mg/kg oral, Day 1, females, Mean, N=6; read-out: Cmax
Quantity Measured: Cmax
// unit must come after the numeric part

Challenge: # Cmax lookup, item C=C(C)[C@@H]1CCC(C)=C[C@H]1c1c(O)cc(CCCCC)cc1O
Response given: 2090 ng/mL

###

- Assay Overview: Toxicokinetics from toxicological studies in dogs, daily oral (gavage) administration
- Type: in vivo, dog
- Measurement Parameters: female, dog, plasma, po; comparative Table 11, females, 100 mg/kg, Day 1, mean; read-out: Cmax
Quantity Measured: Cmax (ng/mL)
Numbers only, in ng/mL.

Challenge: What value of Cmax has been reported for the following molecule? C=C(C)[C@@H]1CCC(C)=C[C@H]1c1c(O)cc(CCCCC)c(C(=O)O)c1O
Response given: 38600
